Assay: Pharmacokinetics in mice
Type: in vivo
Conditions: mouse, plasma, oral 25 mg/kg
property-measured: AUC (ng·h/mL)
Write down the numeric answer in ng·h/mL and omit the unit.

Look at this molecule and give its reported AUC. CC1CC(=C2O[C@@H]3CC(=O)N3C2C(=O)O)C(=O)O1 (single isomer, unassigned)
1090

----------
Biological target: TEM-1 β-lactamase (Escherichia coli)
Assay: Cell-free β-lactamase inhibition study (nitrocefin hydrolysis)
Conditions: 10 min pre-incubation at 37° C., nitrocefin substrate
So basically: is IC50 under 100 nM? Then true (1). Not under? Then false (0).

The examples below pair each entry with its known result.
- molecule: "O=C(O)C(CC=CCN(Cc1ccccc1)C(=O)OCc1ccccc1)=C1O[C@@H]2CC(=O)N2C1C(=O)OCc1ccccc1 (stereo partly shown)"
  assigned-label: "true (1)"
- molecule: "O=C1OC(CI)CC1=C1O[C@@H]2CC(=O)N2C1C(=O)OCc1ccccc1 (single isomer, unassigned) [Example 42]"
  assigned-label: "true (1)"
- molecule: "COC(=O)C1(C/C=C/c2ccccc2)C(=CC=O)O[C@@H]2CC(=O)N21 (single isomer, unassigned) [Example 15]"
  assigned-label: "false (0)"
- molecule: "COC(=O)C1C(=C(C=O)C/C=C/c2ccccc2)O[C@@H]2CC(=O)N12 (stereo partly shown)"
  assigned-label: "false (0)"
- molecule: "CC(=O)OCC=CCC1(C(=O)OCc2ccccc2)C(=CC=O)O[C@@H]2CC(=O)N21 (stereo partly shown) [Example 11]"
  assigned-label: "false (0)"

Hi there! Is IC50 for COC(=O)C(CCCc1ccccc1)=C1O[C@@H]2CC(=O)N2C1C(=O)OC (stereo partly shown) below 100 nM, do you know?
true (1)

----------
Molecular target: SHV-1 β-lactamase (Klebsiella pneumoniae)
Sequence (P0AD64 whole entry, looked up): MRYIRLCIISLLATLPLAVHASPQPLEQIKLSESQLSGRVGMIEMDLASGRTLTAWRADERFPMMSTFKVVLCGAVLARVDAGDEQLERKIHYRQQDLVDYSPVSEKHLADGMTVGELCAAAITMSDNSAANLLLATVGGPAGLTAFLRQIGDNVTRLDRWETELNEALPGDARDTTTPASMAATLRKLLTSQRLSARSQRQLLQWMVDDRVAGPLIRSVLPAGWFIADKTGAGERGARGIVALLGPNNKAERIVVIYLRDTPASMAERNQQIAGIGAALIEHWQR
Experiment: Cell-free β-lactamase inhibition study (nitrocefin hydrolysis)
Type: biochemical
Conditions: SHV-1; 10 min pre-incubation at 37° C., nitrocefin substrate; read-out: IC50
The following compounds are listed with their measured pIC50 values.
The scale used: pIC50 is minus the common logarithm of the concentration in molar units.

Sample records with pIC50:
- compound: "C=CCC(C=O)=C1O[C@@H]2CC(=O)N2C1C(=O)OC (some centres unmarked)"
  pIC50: 7.09
- compound: "COC(=O)C1C(=C(CCCc2ccccc2)C(=O)O)O[C@@H]2CC(=O)N12 (some centres unmarked)"
  pIC50: 6.66
- compound: "O=CC=C1O[C@@H]2CC(=O)N2C1(C/C=C/c1ccccc1)C(=O)OCc1ccccc1 (single isomer, unassigned) [Example 6]"
  pIC50: 5.40
- compound: "O=CC=C1O[C@@H]2CC(=O)N2C1(C/C=C/c1ccccc1)C(=O)OCc1ccccc1 (some centres unmarked) [Example 5]"
  pIC50: 5.15
- compound: "O=C(OCc1ccccc1)C1C(=C2COC(CI)C2)O[C@@H]2CC(=O)N12 (some centres unmarked)"
  pIC50: 5.44
- compound: "COC(=O)C1(C/C=C/c2ccccc2)C(=CC(=O)O)O[C@@H]2CC(=O)N21 (single isomer, unassigned) [Example 36]"
  pIC50: 6.19
- compound: "C=CCC1(C(=O)OC)C(=CC=O)O[C@@H]2CC(=O)N21 (some centres unmarked)"
  pIC50: 4.67
- compound: "C=CC/C(CO)=C1\\O[C@@H]2CC(=O)N2C1C(=O)OCc1ccccc1 (some centres unmarked)"
  pIC50: 5.17
- compound: "COC(=O)C1/C(=C2/CC(CI)OC2=O)O[C@@H]2CC(=O)N12 (some centres unmarked) [Mixture of Example 43 and Example 44]"
  pIC50: 8.37
- compound: "O=C(O)C=C1O[C@@H]2CC(=O)N2C1(C/C=C/c1ccccc1)C(=O)OCc1ccccc1 (single isomer, unassigned) [Example 28]"
  pIC50: 5.03

Look at this compound and give its reported pIC50. O=C1OC(CI)CC1=C1O[C@@H]2CC(=O)N2C1C(=O)OCc1ccccc1 (single isomer, unassigned) [Example 42]
9.10

Look at this compound and give its reported pIC50. COC(=O)C1(C/C=C/c2ccccc2)C(=CC=O)O[C@@H]2CC(=O)N21 (single isomer, unassigned) [Example 15]
5.35

Look at this compound and give its reported pIC50. O=C(OCc1ccccc1)C1C(=C(CO)C/C=C/c2ccccc2)O[C@@H]2CC(=O)N12 (some centres unmarked)
5.25

Look at this compound and give its reported pIC50. CCCC(C(=O)O)=C1O[C@@H]2CC(=O)N2C1C(=O)O (some centres unmarked)
6.36

Look at this compound and give its reported pIC50. CC(C)(C)C(=O)OCOC(=O)C1C(=C(C/C=C/c2ccccc2)C(=O)O)O[C@@H]2CC(=O)N12 (some centres unmarked)
6.85

Look at this compound and give its reported pIC50. O=C(O)C=C1O[C@@H]2CC(=O)N2C1(C/C=C/c1ccccc1)C(=O)OCc1ccccc1 (single isomer, unassigned) [Example 27]
6.20

Look at this compound and give its reported pIC50. C=CC/C(CO)=C1/O[C@@H]2CC(=O)N2C1C(=O)OCc1ccccc1 (some centres unmarked) [Example 38a]
5.77

Look at this compound and give its reported pIC50. [N-]=[N+]=NCC1C/C(=C2\O[C@@H]3CC(=O)N3C2C(=O)OCc2ccccc2)C(=O)O1 (some centres unmarked)
8.38

Look at this compound and give its reported pIC50. C=CCC(C(=O)O)=C1O[C@@H]2CC(=O)N2C1C(=O)OC (some centres unmarked)
6.47

Look at this compound and give its reported pIC50. O=CC=C1O[C@@H]2CC(=O)N2C1(CC=CCO)C(=O)OCc1ccccc1 (single isomer, unassigned)
5.98

Look at this compound and give its reported pIC50. CC1C/C(=C2\O[C@@H]3CC(=O)N3C2C(=O)OCc2ccccc2)C(=O)O1 (single isomer, unassigned)
9.30

Look at this compound and give its reported pIC50. CC(C)(C)C(=O)OCOC(=O)C1(C/C=C/c2ccccc2)C(=CC=O)O[C@@H]2CC(=O)N21 (some centres unmarked)
6.21

Look at this compound and give its reported pIC50. O=C1OC(CI)CC1=C1O[C@@H]2CC(=O)N2C1C(=O)OCc1ccccc1 (single isomer, unassigned) [Example 41]
9.40

Look at this compound and give its reported pIC50. COC(=O)C1(C/C=C/c2ccccc2)C(=CC(=O)O)O[C@@H]2CC(=O)N21 (single isomer, unassigned) [Example 35]
5.64

Look at this compound and give its reported pIC50. O=C(O)C(C/C=C/c1ccccc1)=C1O[C@@H]2CC(=O)N2C1C(=O)OCc1ccccc1 (some centres unmarked)
7.44

Look at this compound and give its reported pIC50. COC(=O)C1C(=C(C/C=C/c2ccccc2)C(=O)O)O[C@@H]2CC(=O)N12 (some centres unmarked)
7.30

----------
Assay: Pharmacokinetics in mice
Format: in vivo
Conditions: mouse, plasma, sc, subcutaneous 10 mg/kg
property-measured: AUC (ng·h/mL)
Write down the numeric answer in ng·h/mL and omit the unit.

Look at this molecule and give its reported AUC. CC1CC(=C2O[C@@H]3CC(=O)N3C2C(=O)O)C(=O)O1 (single isomer, unassigned)
2090

----------
Biological target: TEM-1 β-lactamase (Escherichia coli, UniProt P62593)
Sequence (P62593 whole entry, looked up): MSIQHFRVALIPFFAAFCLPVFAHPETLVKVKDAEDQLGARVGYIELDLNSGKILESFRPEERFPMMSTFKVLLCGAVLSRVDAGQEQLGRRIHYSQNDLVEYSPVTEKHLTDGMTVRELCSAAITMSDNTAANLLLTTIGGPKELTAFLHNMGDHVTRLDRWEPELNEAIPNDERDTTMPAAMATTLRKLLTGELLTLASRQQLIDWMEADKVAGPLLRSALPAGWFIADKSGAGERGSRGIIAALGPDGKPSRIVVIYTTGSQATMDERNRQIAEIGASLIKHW
Test: Cell-free β-lactamase inhibition study (nitrocefin hydrolysis)
Details: 10 min pre-incubation at 37° C., nitrocefin substrate
pIC50: −log10 of the molar value.
Label rule, in plain words: pIC50 of 6 and up is T, under 6 is F.

- compound: "C=CCC1(C(=O)OC)C(=CC=O)O[C@@H]2CC(=O)N21 (stereo partly shown) [Example 17]"
  assigned-label: "F"
- compound: "CC(=O)OCC=CCC1(C(=O)OCc2ccccc2)C(=CC=O)O[C@@H]2CC(=O)N21 (stereo partly shown) [Example 12]"
  assigned-label: "F"
- compound: "[N-]=[N+]=NCC1C/C(=C2\\O[C@@H]3CC(=O)N3C2C(=O)OCc2ccccc2)C(=O)O1 (stereo partly shown) [Example 48]"
  assigned-label: "T"

Decide: is the reported value of pIC50 for O=C(O)C=C1O[C@@H]2CC(=O)N2C1(C/C=C/c1ccccc1)C(=O)OCc1ccccc1 (single isomer, unassigned) [Example 27] equal to or greater than 6?
T

Decide: is the reported value of pIC50 for O=CC=C1O[C@@H]2CC(=O)N2C1(CC=CCO)C(=O)OCc1ccccc1 (single isomer, unassigned) [Example 8] equal to or greater than 6?
F

Decide: is the reported value of pIC50 for CC1CC(=C2O[C@@H]3CC(=O)N3C2C(=O)O)C(=O)O1 (stereo partly shown) [Example 50] equal to or greater than 6?
T

----------
Assay: Pharmacokinetics in mice
Format: in vivo
Settings: mouse, plasma, sc, subcutaneous 10 mg/kg (0.05 M NaPO4 buffer, pH 7.2), read-out: Cmax
property-measured: Cmax (µg/mL)
Write down the numeric answer in µg/mL and omit the unit.

Look at this compound and give its reported Cmax. CC1CC(=C2O[C@@H]3CC(=O)N3C2C(=O)O)C(=O)O1 (single isomer, unassigned) [Example 49]
5.6
